Each recorded value in this set is attributed to patent US11076597B2.

Target: PYR1 receptor-HAB1 protein phosphatase complex (Arabidopsis thaliana, UniProt O49686)
Construct: made in house; host or cells: E. coli BL21 (DE3)
Sequence (O49686 1-191): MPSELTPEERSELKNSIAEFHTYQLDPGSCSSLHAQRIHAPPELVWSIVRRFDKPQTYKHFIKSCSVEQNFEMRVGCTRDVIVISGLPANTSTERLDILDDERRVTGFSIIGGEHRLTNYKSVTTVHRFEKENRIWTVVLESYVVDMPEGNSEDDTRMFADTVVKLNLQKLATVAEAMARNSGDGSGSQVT
Sequence (Q9CAJ0 172-511 partner limits assumed): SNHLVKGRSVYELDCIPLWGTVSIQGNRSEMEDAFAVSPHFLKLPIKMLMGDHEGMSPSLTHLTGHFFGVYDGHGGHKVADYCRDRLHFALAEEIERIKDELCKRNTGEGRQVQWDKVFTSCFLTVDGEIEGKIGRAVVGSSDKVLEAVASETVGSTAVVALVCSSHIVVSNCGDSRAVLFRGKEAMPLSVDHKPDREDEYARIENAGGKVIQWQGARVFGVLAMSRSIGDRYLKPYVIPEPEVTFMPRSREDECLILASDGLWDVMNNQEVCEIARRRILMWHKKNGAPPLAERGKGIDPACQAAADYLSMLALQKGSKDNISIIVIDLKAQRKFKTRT
Assay: AlphaScreen assay: promotion of PYR1 receptor binding to PP2C protein phosphatase HAB1
Settings: EC50, FIG. 2a; 6×His-SUMO-tagged PYR1 (whole coding sequence), Biotin-tagged HAB1 (aa 172-511), 100 nM each; pH 7.4; 1.5 h room temperature
Source text: The construction method of recombinant plasmids for the Arabidopsis thaliana genes PYL1 (amino acid sequence 36-211), PYL2 (amino acid sequence 14-188) with dual tags of 6×His and SUMO sequence and the Arabidopsis thaliana gene HAB1 (amino acid sequence 172-511) with the Biotin tag sequence is described in detail in “A gate-latch-lock mechanism for hormone signaling by abscisic acid receptors” (Nature, Vol 462, 2009). […]
Test Readout: EC50 (µM)

INSERT INTO assay_data (compound, numeric_readout) VALUES
  ('CC1=CC(=O)CC(C)(C)[C@@]1(O)/C=C/C(C)=C\C(=O)O [ABA, Abscisic Acid, reference compound]', 3.57);
